Cited source for all entries: patent US8518952B2

Target: CHK1 (kinase domain) (Homo sapiens)
Sequence (O14757 9-265 limits assumed): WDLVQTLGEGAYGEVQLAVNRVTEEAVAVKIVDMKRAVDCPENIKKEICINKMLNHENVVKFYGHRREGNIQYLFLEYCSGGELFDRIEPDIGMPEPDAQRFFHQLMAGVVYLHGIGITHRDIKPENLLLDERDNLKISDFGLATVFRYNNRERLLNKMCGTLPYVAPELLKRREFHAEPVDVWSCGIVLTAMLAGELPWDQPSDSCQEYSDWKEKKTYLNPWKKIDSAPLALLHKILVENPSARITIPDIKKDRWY
Counter-ions that a name gives are not always drawn.
recorded.endpoint: log10(Ki) (log10 of the value in nM)
Values below are the log10 of the recorded Ki, with nM as the unit.

Study these solved cases before continuing.
compound: C[C@H]1NCCC[C@H]1Nc1cncc(-c2cnn3ccncc23)n1 [Example 252, acetate salt]
log10(Ki): 1.84
//
compound: Clc1ccn2c(-c3cncc(N[C@@H]4CCCNC4)n3)cnc2c1 [Example 44]
log10(Ki): 0.40
//
compound: F[C@H]1CNC[C@@H]1Nc1cncc(-c2cnn3ccccc23)n1 [Example 66]
log10(Ki): 1.10
//
compound: CC(C)Oc1ccc2ncn(-c3cncc(N[C@@H]4CCCNC4)n3)c2c1 [Example 150]
log10(Ki): 0.77

Consider now this further compound.
stdin: Supply measured log10(Ki) of CCc1cn2c(-c3cncc(N[C@@H]4CCCNC4)n3)cnc2s1 [Example 107] in your reply.
stdout: 0.45
